# test-details: soluble on expression in E. coli; label from the status in PepcDB or PDB records

| seq-string | soluble on expression in E. coli |
| --- | --- |
| MSLNLTIGTSKFNPPFEVWSGNNSSLYGFDIDLMQEICRRLHATCTFEAYIFDDLFPALKNREVDLVIASMIITDERKKHFIFSLPYMESNSQYITTVDSKISTFDDLHGKKIGVRKGTPYARQVLSENRNNQVIFYELIQDMLLGLSNNQVDASLMDYEAAKYWMASEPYAYKLIGKKYKLIGKKISIGEGYSIMANPDQFVLIKKINKILLEMEADGTYLRLYSEYFEGHHHHHH | soluble |
| MSLISLQSDQLLEATVGQFMIEADKVAHVQVGNNLEHALLVLTKTGYTAIPVLDPSYRLHGLIGTNMIMNSIFGLERIEFEKLDQITVEEVMLTDIPRLHINDPIMKGFGMVINNGFVCVENDEQVFEGIFTRRVVLKELNKHIRSLNKEGGSHHHHHH | soluble |

----------
# test-details: soluble on expression in E. coli; label from the status in PepcDB or PDB records

| seq-string | soluble on expression in E. coli |
| --- | --- |
| MVADNSEKSTKSVANGSLISTVSSKDDLPNAIIVTQVPEDVFDNKQDKANFSSLFTQIEKDIHFDFLRSFRRVRVIFSSPENATAAKLIVQGFSFKGHELKAFFAQRIYMSANSQMLSPPPLEKQFLISPPCSPPVGWEQTKDMPPVVCNFDLMARLASFAIDEKYEVHNGDELTPAIIVHPCETPIDVPSAIEMPRTPRPSSPCEQ | not soluble |
| MNSQNPDDHEDTTVVGFEVPVSPVSSYNNVYSSTEDETRDPPAVPPHLQHSLLGNQGSMELAYAPQNVVLNHLYIENRDAPRSVVALGFSHRFRTKFVTVVIYKPVQRRGSANV | not soluble |

----------
# test-details: soluble on expression in E. coli; label from the status in PepcDB or PDB records

| seq-string | soluble on expression in E. coli |
| --- | --- |
| MGSDKIHHHHHHMTTTTKKTAERLIKKYPNRRLYDTETSTYITLTDVKQLVLDQEDFKVIDAKSNEDLTRAILLQIILEEESGGLPMFSSSMLSQIIRFYGHAMQGMMGTYLEKNIQAFIDIQAKLADQSKNLYEGKAMNPEVWSQFMNMQAPMMQGMMTSYIEQSKNMFVQMQEQMQNQAKSMFATFPFTPGGAVNVAGGGNAPASPQGNPQGNPEPEKK | not soluble |
| SLPHCETLLLEPIEGVLRITLNRPQSRNAMSLAMVGELRAVLAAVRDDRSVRALVLRGADGHFCAGGDIKDMAGARAAGAEAYRTLNRAFGSLLEEAQAAPQLLVALVEGAVLGGGFGLACVSDVAIAAADAQFGLPETSLGILPAQIAPFVVRRIGLTQARRLALTAARFDGREALRLGLVHFCEADADALEQRLEETLEQLRRCAPNANAATKALLLASESGELGALLDDAARQFAEAVGGAEGS | not soluble |

----------
# test-details: soluble on expression in E. coli; label from the status in PepcDB or PDB records
parameter: soluble on expression in E. coli

| seq-string | parameter | experimental-value |
| --- | --- | --- |
| MGSDKIHHHHHHMNNFFTRVDNLSRLSVEKHNVAFSLFDWPAHIAEDTWWQSPDVLSIALTDHIEQWDEAQLIKLAKWECINSFSLNYTGELELIQEVSRILDKVALSDAREYLYHLIDEENQHMWYFQKFCRAYGGKVYPNKKFQIEKQLMSPAKEHFLVFARILIFEEIGHYYNIQNARDSRVHPFVREINEAHYKDESRHIAYGRQVLEHLAKDAITDEGDALWLGQQLDKSIAINIAALYNPQAYRDAGITKGMALRESLLNHPNRIELHETKLLGSFKRHAERLGITLTDTRK | soluble on expression in E. coli | not soluble |
| MSLYLITNRKLCSEERYLEVIKESILSGVENIIIREKDLEYQELRKLYMKIKTKINCIDFQEQISDESLKTNINQKECRNKFKVNFIINSNIEFFEKVDCQGIHLPFKLFLNLIENKYNFNENKILGLSLHKVEEVDYLEKLIRNQNIKIDYITLSHIYETKCKEGLNPKGIELLKEAKKITDIKIIALGGILPSNVKETLKYCDDFAIMSTIMRSKDIKKTISNYNEKLNEGHHHHHH | soluble on expression in E. coli | not soluble |

----------
# test-details: soluble on expression in E. coli; label from the status in PepcDB or PDB records
parameter: soluble on expression in E. coli

| seq-string | experimental-value |
| --- | --- |
| MGHHHHHHSHLPTTNIGSFPQTTEIRHARASFKKGELSLADYEAAMKKEIEYVVRRQEELDLDVLVHGEAERNDMVEYFGELLDGFAFTKFGWVQSYGSRCVKPPVIYGDVTRPEPMTVRWSQYAQSLTNRVMKGMLTGPVTILQWSFVRNDIPRSTVCKQIGVALSDEVLDLEAAGIKVIQIDEPAIREGLPLKRADWDAYLQWAGEAFRLSSMGVQDDTQIHTHMCYSEFNDILPAIAALDADVITIETSRSDMELLTAFADFKYPNDIGPGVYDIHSPRVPTATEVEHLLRKALNVIPKERLWVNPDCGLKTRGWTETIDQLKVMVDVTKK | not soluble |
| MEKLENFWTRDELNTFFDYVTPERDVEQFTMFRVLAYSGIRKGELLALTWKDINFEDNTLRVNKTLTQGLGGKLIVQPPKSRAGRRTIDLDDSTMRYLRQWKGVQRETFLGMGFNTNNVDQLVFASNRNHFRSMNTPTKWLNKAIKATGLKHISIHGFRHTHASLLYQSGVGLKETQQRLGHSRADSSVTLDVYTHTTEQQNVAALQRFENYVEAKLEHHHHHH | not soluble |

----------
# test-details: soluble on expression in E. coli; label from the status in PepcDB or PDB records
parameter: soluble on expression in E. coli

| seq-string | parameter | experimental-value |
| --- | --- | --- |
| MSLARANIDTDAILPKQFMKSIERTGFGVHLFDGFRYLDAGSLGMDCSRRPENPDFILNWPRYREASILLAGANFGCGSSREHAPWAIEQYGFRVLIASSFADIFRDNCFKNGLLPIVLASETMDRLFDEVSHQVGFELEVDLPRQTISCPAGWCIEFEMDSIRKAHLLEGIDEIGSTLSLSKKIGDFERARRQSHPWFFGAEGHHHHHH | soluble on expression in E. coli | not soluble |
| MIDIQGIKEALPHRYPMLLVDRVLEVSEDTIVAIKNVTINEPFFNGHFPQYPVMPGVVIMEALAQTAGVLELSKPENKGKLVFYAGMDKVKFKKQVVPGDQLVMTATFVKRRGTIAVVEAKAEVDGKLAASGTLTFAIGN | soluble on expression in E. coli | soluble |
| MGSDKIHHHHHHMREVFQRLKQAILEKQDTMLLTIGTSSGSTPRSQGARMLVSAEGRIAGTVGGGAVEFQAEQVAKKLVLEKENAQRQFILAPNNIADLGMVCGGNVTIFFHYLSWETPFLKELCESIETHFQNNQQGWLVTELDQNNLGKVSFYSETGELIGSTSWEGELSLLPKGIHCEQKEDIIFLTEAILQVGKVYIFGSGHVARALVPILNYLSFYCVVVDDRPEFLTAQAFPQAEELRVIPLENLAAFIEITADDYGIVITRGHNFDFIVAKQLLETPAKYIGVMGSKHKIASQVRRLKEVGYTMTEIERIFMPIGLDIAAETPEELAISIAGELIQQRYQ | soluble on expression in E. coli | not soluble |
| SVHPALEFSDCYSDSPDFRERLKCYENELEKTNKFLKDVIKDGNNVINTFKEYSLAVQKFSQTLQSFQFDFIGDTLTDDEMNIAESFREFAGLLQDVEEARMMLVQNASDLLIKPLEKFRKEQIGVTKERRKKFEKESEKYYSQLDKHVNLSSKKKETQLQEADEQLDKERQAFYESSVEYVYQIQQVQEKKKFDVVEPVLAFLQSILTLNNLTVEMYTFRNKGTKCNTGEIPFQKVQFCTIQVDISTFMVHFCTFKLYFCTFKIP | soluble on expression in E. coli | soluble |
| MHDTEKSDSGIVAEKPTNKAGLLAAEWAEPRPGTKGNAEQQRMHRTQGRARMTQSLDRVRTAARLRKKDRFTALFHHINVDTLRAAFFALRRKAAPGVDGMTWEDYEEDLEPRLADLHKRVQRGAYRPQPSRRTYIPKADGKQRPLAIAALEDKIVQGANRHRAQRHLRRRLLWLFLRVSARQRTTAAALEHHHHHH | soluble on expression in E. coli | soluble |

Below: the item to evaluate.
**Query** Look up soluble on expression in E. coli for this sequence: MKKTLTSPLVAAIAHTAAPVHAGTLEDVKARGNLLCSSTTGSPGFSMPDDAGKRHGLEVDVCRAIATAVFGDPERHKIVVLNPIQRFTALQSGEVDILFNTTTWTLSREGAGALYAGVTYYDGQGVLVRKGTIASAKELDGGAICTNQGSTTELNLVDFFRANKVSNEVITFATVQEAANAYESGRCDAWSADAGILAALRSKMKAPDDHVILADRLSKEPLGAAVRKGDDAWFSVVRWSIFALQAAEELGLTSKNIAEQAKSTTNPEVLRFVGKEGSLGKVLGLNGDWAYQIVAQVGSYAEIFDRNIGAASPLNLERGINASWKNGGLFYTPPFR
**Result** not soluble

Recorded values, source the DeepSol protein solubility set.
